# Test system: Pseudomonas aeruginosa
# measurementDescription: Antibioflim activity in Pseudomonas aeruginosa PA14 after 24 hrs by general static dispersion assay
# Format: functional
Calls of active or inactive are those of the source. No cut-off for these calls is given here.
metricName: Activity

> print(dat)
                                  itemsmiles  recordedvalue
 1        Cl.Nc1nc(CCCNC(=O)Nc2ccccc2)c[nH]1       inactive
 2       Cl.Nc1nc(CCCNC(=O)NCc2ccccc2)c[nH]1       inactive
 3  Cc1cc(C)cc(S(=O)(=O)NCCCc2c[nH]c(N)n2)c1.Cl       inactive
 4       CCCCCCS(=O)(=O)NCCCc1c[nH]c(N)n1.Cl            42%
 5  Cl.Nc1nc(CCCNS(=O)(=O)c2ccc(C(F)(F)F)cc2)c[nH]1       inactive
 6    Cl.Nc1nc(CCCNS(=O)(=O)c2ccccc2F)c[nH]1       inactive
 7       Cl.Nc1nc(CCCNC(=O)NC2CCCCCC2)c[nH]1       inactive
 8  Cl.Nc1nc(CCCNS(=O)(=O)c2cccc3cccnc23)c[nH]1       inactive
 9        Cl.Nc1nc(CCCNC(=S)NC2CCCCC2)c[nH]1            25%
10  Cc1ccc(S(=O)(=O)NCCCc2c[nH]c(N)n2)cc1.Cl       inactive

Item Cl.Nc1nc(CCCNC(=O)Nc2ccc(F)c(Cl)c2)c[nH]1 with Pseudomonas aeruginosa - Activity?
55%

Form entry - test system: Pseudomonas aeruginosa; read-out: Activity; compound: CCCCCCNC(=O)NCCCc1c[nH]c(N)n1.Cl
inactive

Which measured Activity belongs to Cl.Nc1nc(CCCNC(=S)Nc2ccccc2)c[nH]1 , tested on Pseudomonas aeruginosa?
inactive

Param readout = Activity; param system = Pseudomonas aeruginosa; param query = Cc1ccc(F)cc1NC(=O)NCCCc1c[nH]c(N)n1.Cl ; response: value
inactive

# value lookup — system Pseudomonas aeruginosa, readout Activity, item CCOc1ccc(NC(=O)NCCCc2c[nH]c(N)n2)cc1.Cl
inactive

Please provide the recorded Activity for Cl.Nc1nc(CCCNS(=O)(=O)c2ccc3ccccc3c2)c[nH]1 , tested on Pseudomonas aeruginosa.
inactive

Lab note: need Activity with Pseudomonas aeruginosa for entry Cl.Nc1nc(CCCNS(=O)(=O)c2cccc(C(=O)O)c2)c[nH]1 , please look it up.
inactive

Please state recorded Activity (tested on Pseudomonas aeruginosa) of Cl.Nc1nc(CCCNS(=O)(=O)c2ccc(Br)cc2)c[nH]1
inactive

Could you share what Activity was measured for CC(=O)c1cccc(NC(=O)NCCCc2c[nH]c(N)n2)c1.Cl , tested on Pseudomonas aeruginosa?
inactive

* * *

# Tested on: Pseudomonas aeruginosa
# measurementDescription: Antibioflim activity in Pseudomonas aeruginosa PA14 after 24 hrs by general static inhibition assay
# Assay type: functional, organism-based
# conditionDescription: Pseudomonas aeruginosa, PA14, 24 h; read-out: IC50
metricName: pIC50
Please keep in mind that pIC50 is minus log10 of the molar concentration; only the number is needed.

> print(dat)
                                itemsmiles  metricname  recordedvalue
1  CCOc1ccc(NC(=O)NCCCc2c[nH]c(N)n2)cc1.Cl       pIC50           4.30

Endpoint output: pIC50 of Cl.Nc1nc(CCCNS(=O)(=O)c2ccc3ccccc3c2)c[nH]1 . Value?
4.81

Returns the measured pIC50 for the input compound. Input: Cl.Nc1nc(CCCNC(=S)Nc2ccccc2)c[nH]1
4.57

pIC50 for Cl.Nc1nc(CCCNC(=S)NC2CCCCC2)c[nH]1 ?
4.65

Which pIC50 is listed for Cl.Nc1nc(CCCNS(=O)(=O)c2ccc(C(F)(F)F)cc2)c[nH]1 ?
4.60
